target: human CYP1A2 (Homo sapiens)
Sequence (P05177 whole entry): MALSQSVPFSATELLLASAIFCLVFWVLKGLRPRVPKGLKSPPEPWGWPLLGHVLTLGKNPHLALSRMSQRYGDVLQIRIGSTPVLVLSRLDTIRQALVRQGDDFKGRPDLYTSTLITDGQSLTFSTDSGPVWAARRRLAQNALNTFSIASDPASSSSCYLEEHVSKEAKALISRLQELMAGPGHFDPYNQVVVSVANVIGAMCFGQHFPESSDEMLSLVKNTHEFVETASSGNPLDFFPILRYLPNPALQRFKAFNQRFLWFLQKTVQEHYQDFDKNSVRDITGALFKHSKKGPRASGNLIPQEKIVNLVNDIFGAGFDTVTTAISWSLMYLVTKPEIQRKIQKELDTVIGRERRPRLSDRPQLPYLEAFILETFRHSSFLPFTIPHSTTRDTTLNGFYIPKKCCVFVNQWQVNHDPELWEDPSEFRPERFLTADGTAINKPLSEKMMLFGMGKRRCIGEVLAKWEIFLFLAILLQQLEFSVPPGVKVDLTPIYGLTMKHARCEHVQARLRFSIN
Recorded endpoint: AC50 (µM)

>>> df
                                   molecule  observed_value
0  O=C1NC(=O)c2cccc3cccc1c23 [1H-Benzo[de]isoquinoline-1,3(2H)-dione]            2.74
1  O=C(O)c1cc(Br)c(O)c(Br)c1 [3,5-Dibromo-4-hydroxybenzoic acid]            35.7
2  CN(C)C1CSSSC1.O=C(O)C(=O)O [Thiocyclam oxalate]              61
3  C=Cc1ccc(S(=O)(=O)[O-])cc1.[Na+] [Sodium 4-vinylbenzenesulfonate]            63.5
4                   C=C(C)C(=O)OCCOc1ccccc1            24.5
5  CCCOC(=O)c1c(Cl)c(Cl)c(Cl)c(Cl)c1C(=O)OCCC            1.72
6  COC(=O)c1ccc(C(=O)OC)c(C(=O)OC)c1 [Trimethyl benzene-1,2,4-tricarboxylate]            7.19
7              CC(C)(C)C(=O)C=Cc1ccc(Cl)cc1            21.2

* * *

Listed below: IC50 values for each entry.
target: UniProtKB P10635; experiment: biochemical; details: CYP2D6 IC50
Sequence (P10635 whole entry): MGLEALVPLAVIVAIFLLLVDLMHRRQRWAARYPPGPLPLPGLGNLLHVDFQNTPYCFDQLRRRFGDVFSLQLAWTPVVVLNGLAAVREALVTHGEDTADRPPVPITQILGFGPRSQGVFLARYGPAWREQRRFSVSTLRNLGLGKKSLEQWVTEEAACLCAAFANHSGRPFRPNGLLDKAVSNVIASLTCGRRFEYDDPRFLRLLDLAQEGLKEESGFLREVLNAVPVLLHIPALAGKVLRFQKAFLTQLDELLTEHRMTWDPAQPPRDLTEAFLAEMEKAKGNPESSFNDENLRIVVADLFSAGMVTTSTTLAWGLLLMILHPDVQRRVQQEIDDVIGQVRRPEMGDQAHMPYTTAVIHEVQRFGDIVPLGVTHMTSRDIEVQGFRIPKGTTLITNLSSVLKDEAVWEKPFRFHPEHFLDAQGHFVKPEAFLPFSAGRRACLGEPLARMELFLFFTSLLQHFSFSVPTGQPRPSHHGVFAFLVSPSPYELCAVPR
Recorded endpoint: IC50 (nM)

>>> df
                                   compound  observed_value
0  CCOC(=O)N(C)C(=O)CSP(=S)(OCC)OCC [Mecarbam]           27500
1  CN1CCc2cc(Cl)c(O)cc2[C@H]2c3ccccc3CC[C@@H]21 [Ecopipam]              10
2  CCN(CC)CCCC(C)Nc1c2ccc(Cl)cc2nc2ccc(OC)cc12 (stereo not drawn) [Quinacrine]             180

* * *

The following compounds have recorded AC50 on human CYP2C9 (Homo sapiens).
Sequence (P11712 whole entry): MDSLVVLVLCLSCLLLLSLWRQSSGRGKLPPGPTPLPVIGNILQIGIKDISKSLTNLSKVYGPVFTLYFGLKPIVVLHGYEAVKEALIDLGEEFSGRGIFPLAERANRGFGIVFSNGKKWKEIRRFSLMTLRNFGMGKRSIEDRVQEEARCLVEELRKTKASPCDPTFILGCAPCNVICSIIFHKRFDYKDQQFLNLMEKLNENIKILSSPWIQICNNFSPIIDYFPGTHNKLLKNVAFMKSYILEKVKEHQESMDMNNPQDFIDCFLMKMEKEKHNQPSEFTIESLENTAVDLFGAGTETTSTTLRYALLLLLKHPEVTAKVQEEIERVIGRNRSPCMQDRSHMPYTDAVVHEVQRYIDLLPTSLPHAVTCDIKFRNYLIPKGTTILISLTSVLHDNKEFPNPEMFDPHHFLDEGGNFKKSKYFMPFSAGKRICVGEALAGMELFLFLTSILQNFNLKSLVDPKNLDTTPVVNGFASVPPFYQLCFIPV
Recorded endpoint: AC50

In [3]: df
Out[3]:
                                    compound  observed_value
 0  CCOC(CN1CCN(CC(C)C(=O)c2ccccc2)CC1)c1ccccc1.Cl.Cl (stereo not shown) [Eprazinone dihydrochloride]         11.5 µM
 1  c1ccc(SCCSc2ccccc2)cc1 [1,2-Bis(phenylthio)ethane]         31.4 µM
 2  COC(OC)(C(=O)c1ccccc1)c1ccccc1 [2,2-Dimethoxy-1,2-diphenylethanone]         22.5 µM
 3  CCOC(=O)COc1ccc(Cl)cc1Cl [2,4-D-ethyl ester]         55.5 µM
 4  CCCCCC[C@@H](CCC)C(=O)O [(2R)-2-Propyloctanoic acid]         34.7 µM
 5  CCN(CC)c1ccc2c(C)cc(=O)oc2c1 [7-Diethylamino-4-methylcoumarin]          4.6 µM
 6  CCOC(=O)C(C#N)=C(c1ccccc1)c1ccccc1 [Ethyl 2-cyano-3,3-diphenylacrylate]         3.75 µM
 7  NS(=O)(=O)c1ccccc1OC(F)(F)F [2-(Trifluoromethoxy)benzenesulfonamide]         62.1 µM
 8  C/C=C1/C(=O)C[C@H]2[C@@H]3CCC4=CC(=O)CC[C@]4(C)[C@H]3CC[C@]12C [Guggulsterone E]         19.6 µM
 9  CCCCCCC(O)CCCCCCCCCCC(=O)OC (stereo not shown) [Methyl 12-hydroxyoctadecanoate]         23.8 µM
10        CC(C)(C)C1=CC(=O)C(C(C)(C)C)=CC1=O         20.8 µM
11  O=C1C=CC(=O)N1c1cccc(N2C(=O)C=CC2=O)c1 [N,N'-1,3-Phenylenedimaleimide]         5.22 µM
12  Nc1ccc(Cl)cc1C(=O)c1ccccc1F [2-Amino-5-chloro-2'-fluorobenzophenone]         16.1 µM
13  CC(C)C(=O)OCCOc1ccccc1 [Phenoxyethyl isobutyrate]           36 µM
14  CC(C)(COC(=O)c1ccccc1)COC(=O)c1ccccc1 [Neopentyl glycol dibenzoate]         6.58 µM
15  CCOC(=O)c1ccc(O)c(O)c1 [Ethyl protocatechuate]         32.2 µM

* * *

Listed below: pIC50 values for each entry.
molecular target: human CYP2C19 (Homo sapiens, UniProt P33261); assay: biochemical; conditions: CYP2C19 IC50 (half-maximal inhibitory concentration)
Sequence (P33261 whole entry): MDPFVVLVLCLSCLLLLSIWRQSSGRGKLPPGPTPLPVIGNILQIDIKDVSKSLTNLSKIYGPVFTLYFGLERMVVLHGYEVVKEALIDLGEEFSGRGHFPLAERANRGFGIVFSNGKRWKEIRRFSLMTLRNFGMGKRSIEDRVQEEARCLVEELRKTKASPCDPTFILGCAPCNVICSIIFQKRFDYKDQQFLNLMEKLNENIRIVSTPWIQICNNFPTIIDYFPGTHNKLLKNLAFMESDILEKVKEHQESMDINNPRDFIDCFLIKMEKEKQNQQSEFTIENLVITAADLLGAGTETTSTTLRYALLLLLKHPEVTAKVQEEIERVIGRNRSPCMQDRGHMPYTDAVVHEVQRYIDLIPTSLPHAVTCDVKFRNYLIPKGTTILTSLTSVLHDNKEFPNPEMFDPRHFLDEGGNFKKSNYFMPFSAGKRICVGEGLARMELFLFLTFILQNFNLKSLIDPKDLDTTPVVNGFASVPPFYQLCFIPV
pIC50: −log10 of the molar value.
Recorded endpoint: pIC50

>>> df
                                   molecule  observed_value
0  COc1ccc2c(c1OC)C(=O)O[C@@H]2[C@H]1c2c(cc3c(c2OC)OCO3)CCN1C            5.86
1       CCOP(=O)(OCC)OC(=CCl)c1ccc(Cl)cc1Cl            6.08
2                CCN(CC)C(=O)SCc1ccc(Cl)cc1            6.18
3  Clc1ccccc1-c1nc(-c2ccncc2)no1 [Pifexole]            6.13

* * *

molecular target: UniProt P10635
Recorded endpoint: log10(AC50) (log10 of the value in µM)

>>> df
                                   compound  observed_value
0  O=C1NCN(c2ccccc2)C12CCN(CCCOc1ccc(F)cc1)CC2 [AMI-193]           -0.22
1  CCOC(=O)c1ccc(NC(=O)CN2CCCCC2)cc1 [Sulcaine]            1.23
2  O=C(O)c1ccc(OCCCOc2ccc(C(=O)O)cc2)cc1 [1,3-Bis(4-carboxyphenoxy)propane]            0.91
3  c1ccc(CCCc2ccccn2)cc1 [2-(3-Phenylpropyl)pyridine]            1.73
4             O=S1(=O)CC(Cl)(Cl)C(Cl)(Cl)C1            1.69
5  O=C(c1ccc(O)cc1)c1ccc(O)cc1O [2,4,4'-Trihydroxybenzophenone]            1.52

* * *

pIC50: −log10 of the molar value.
The following molecules have recorded pIC50 on UniProt P33261.
Recorded endpoint: pIC50

Molecule	Tested on	Observed value
C[C@H]1CCC[C@H](O)CCCCCc2cc(O)cc(O)c2C(=O)O1 [Zearalanol]	UniProt P33261	4.71
COc1cc2c(cc1OC)C(C(C(=O)N(CCc1ccc(OC)c(OC)c1OC)CCc1ccc(OC)c(OC)c1OC)c1ccccc1)=NCC2.Cl (centres unmarked) [Pinokalant hydrochloride]	UniProt P33261	4.71
CCC(=O)O[C@]1(C(=O)COC)[C@@H](C)C[C@H]2[C@@H]3CCC4=CC(=O)C=C[C@]4(C)[C@@]3(F)[C@@H](O)C[C@@]21C [Amelometasone]	UniProt P33261	4.36
O=C(C(=O)c1ccc(Br)cc1)c1ccc(Br)cc1 [4,4'-Dibromobenzil]	UniProt P33261	6.15
CC[N+]1(C)CCCC1.[I-] [1-Ethyl-1-methylpyrrolidinium iodide]	UniProt P33261	4.57
COC(=O)C1=C(C)NC(C)=C(C(=O)O[C@@H]2CCCN(Cc3ccccc3)C2)[C@@H]1c1cccc([N+](=O)[O-])c1.Cl (racemic) [rac Benidipine hydrochloride]	UniProt P33261	5.19
CC(C)C[C@H]1[C@@H](c2ccccc2)OC(=O)N1CCCN1CCCCCC1.Cl [Ipenoxazone hydrochloride]	UniProt P33261	5.64
Cc1[nH]cnc1C[C@H]1CCc2c(C)c3ccccc3n2C1=O.Cl [Fabesetron hydrochloride]	UniProt P33261	5.78
N=C(Nc1ccccc1)Nc1ccccc1 [1,3-Diphenylguanidine]	UniProt P33261	4.35
OC(c1ccc(Cl)cc1)(c1ccc(Cl)cc1)c1cccnc1 [Parinol]	UniProt P33261	7.10
Cc1cc(-c2cc(C)c(N)c(C)c2)cc(C)c1N [3,3',5,5'-Tetramethylbenzidine]	UniProt P33261	4.92
COc1cccc(CCc2ccccc2OCC(CN(C)C)OC(=O)CCC(=O)O)c1.Cl (centres unmarked) [Sarpogrelate hydrochloride]	UniProt P33261	4.43
CO/C=C(/C(=O)OC)c1ccccc1COc1cccc(C(F)(F)F)n1 [Picoxystrobin]	UniProt P33261	6.00
C=CCOC(Cn1ccnc1)c1ccc(Cl)cc1Cl.O=S(=O)(O)O (centres unmarked) [Imazalil sulfate]	UniProt P33261	6.66

* * *

Listed below: AC50 values for each entry.
target: UniProt:P05177; assay: biochemical; conditions: CYP1A2 AC50 (half-maximal activity concentration)
Recorded endpoint: AC50 (µM)

In [3]: df
Out[3]:
                                   compound  observed_value
0                   COC(=O)COc1ccc(Cl)cc1Cl            15.4
1  CC(COc1ccc(Oc2ccccc2)cc1)Oc1ccccn1 (stereo not drawn)            17.3
2  O=C1C=CC(=O)N1c1ccc(Cc2ccc(N3C(=O)C=CC3=O)cc2)cc1 [Bismaleimide]            23.9
3  Oc1ccc(Cc2ccc(O)cc2)cc1 [Bis(4-hydroxyphenyl)methane]            38.8
4                 CCCCc1c(C)nc(NCC)[nH]c1=O            31.1
5                         Cc1cc(O)cc(C)c1Cl            14.2

meta.source: paper PMC12155096
